Assay: Solubility in receptor solution (PBS with 0.1% Brij)
Format: physicochemical
Conditions: 32 °C, aqueous with cosolvent or surfactant or cyclodextrin, thermodynamic from solid
Description: Excess of GZ17-6.02 were added to the solvent, which were stirred for 1 hour and incubated at 32° C. for 24 h. Thereafter the sample was centrifuged or filtrated and the solubility determined by HPLC method DM.216.03[4] or DM.217.01 [5]. One sample was prepared and duplicate injections were analysed.
reported property: solubility at 24 h (µg/mL)
Give just the number in µg/mL; leave the unit off.

solubility at 24 h for COc1cc(/C=C/C(=O)CC(=O)/C=C/c2ccc(O)c(OC)c2)ccc1O is 10
